Assay: yeast display, Sf9 membrane polyspecificity reagent, FACS + sequencing; frameworks hold sequencing errors
Parameter measured: polyreactivity (PSR sort gate)

>  <Sequence content>
QVQLVESVGGLVQAGGSLRLSCAASGSTFYRYAMGWYRQAPGKERELVAAISSDGTTYYADSVKGRFTISRDNAKNTVYLQLNSLKPEDTAVYYCAKRGYYRSRRYDYWGQGTLVTVSS

>  <Parameter measured>
polyreactivity (PSR sort gate)

>  <Meas value>
high polyreactivity

$$$$
>  <Sequence content>
QVQLVESGGGLVQAGGSLRLSCAASGSTFPFYAMGWYRQAPGKERELVAAIRYTGNTYYADSVKGRFTISRDNAKNTVFLLMISLKPEDTAVYYCAADADYWAYGYWGHGTQVTVSS

>  <Parameter measured>
polyreactivity (PSR sort gate)

>  <Meas value>
low polyreactivity

$$$$
>  <Sequence content>
QVQLVESGGGLVQAGGSLRLSCAASGSTFGEYAMGWYRQAPGKERELVAGITSGGSTNYADSVKGRFTISRDNAKNTVYLQMNSLKPEDTAVYYCNARFYGSVDYWGLGTQVTVSS

>  <Parameter measured>
polyreactivity (PSR sort gate)

>  <Meas value>
low polyreactivity

$$$$
>  <Sequence content>
QVQLVESGGGLVQAGGSLRLSCAASGSIIRTYAMGWYRQAPGKERQLVATITFGGVSTYNADSVKGRFTISRDNAKNTVYLQMNSLKPEDSAVYYCAADVYTRFWRVYRFDYWGQGTQVTVSS

>  <Parameter measured>
polyreactivity (PSR sort gate)

>  <Meas value>
low polyreactivity

$$$$
>  <Sequence content>
QVQLVESGGGLVQAGGSLRLSCAASGSNFTPYAMGWYRQAPGKERELVAAISGSGGSTRYADSVKARYTISRDNAKNTVYLQMNSLKPEDTAVYYCAADRYTYIWYHIYDYWGQGTQVTVSS

>  <Parameter measured>
polyreactivity (PSR sort gate)

>  <Meas value>
low polyreactivity

$$$$
>  <Sequence content>
QFQLVESGGGLVQAGGSLRLSGAASGRTFRIYAMGWYRQAPGKDRELVAAITRSSGSTYYADSVKGRFTISRDNAKNTVYLQMNSLKPEDTAVYYCAAEALFEPIYDYWGQGTQVTVSS

>  <Parameter measured>
polyreactivity (PSR sort gate)

>  <Meas value>
high polyreactivity

$$$$
>  <Sequence content>
QVQLVESGGGLVQAGGSLRLSCAASGITFYTYAMGWYRQAPGKERELDAAITCSGGRTYYADSVKGRFTISRDNAKNSVYLQMNSLKPEDTAVYYCAALYVYRPRTPYGYWGQGTQVNVSS

>  <Parameter measured>
polyreactivity (PSR sort gate)

>  <Meas value>
high polyreactivity

$$$$
>  <Sequence content>
QVQLVESGGGLVQAGGSLRLSCAASGRILLTYAMGWYRQAPGKERELVAAISSDSRTYYADSVKGLFTISRDNAKNTVYLQMNSLKPEDTAVYYCVRRRYKYDYWGQGTQVTVSS

>  <Parameter measured>
polyreactivity (PSR sort gate)

>  <Meas value>
low polyreactivity

$$$$
>  <Sequence content>
QVQLVESGGGLVQAGGSLRLSCAASGRTFYRYVMGWYRQAPGKERELVATITNGGSTNYADSVKGRFTISRYNAKNTVYLQMNSLKPEDTAVYYCAADYPGYVGWPYSYEYYYWGQCTQVTVSS

>  <Parameter measured>
polyreactivity (PSR sort gate)

>  <Meas value>
low polyreactivity

$$$$
>  <Sequence content>
QVQLVESGGGLVQAGGSLSLSCASSGSTLTYYAMGWYRQEPGKEREFVAAIRWSSGNTYYADSVKGRFTISRDNAKNTVYLQMNSLKPEDTAVYYCAKERRYTGRRSYEYDYWGQGTQVTVSS

>  <Parameter measured>
polyreactivity (PSR sort gate)

>  <Meas value>
low polyreactivity

$$$$
>  <Sequence content>
QVQLQESGGGLVQAGGSLRLSCAASGTISPLPAMGWYRQAPGKERDFVAGIDTGAITNYADSVKGRFTISRDNAKHTVYLQMNSLKPEETAVYYCADFPAAYDYYERYYTYWGQGTQVTVSS

>  <Parameter measured>
polyreactivity (PSR sort gate)

>  <Meas value>
low polyreactivity

$$$$
>  <Sequence content>
QVQLVESGGGLVQAGGSLRLSCAASGSTFWFSAMGWYRQEPGKERELVAAITWSGGRTYYADSVKGRFTISRDNAKNTVYLQLNSLKPEDTAVYYCNKAYPQFGPLDDWGQGTQVTVSS

>  <Parameter measured>
polyreactivity (PSR sort gate)

>  <Meas value>
low polyreactivity

$$$$
>  <Sequence content>
QVQLVESGGGLVQAGGSLRLSCAASGSTFVYNAMGWYRQAPGKERELVAAITSRGGSTDYADSVKGRFTISRDNAKNTVYLQMNSLKPEYTSVYYCAADYSHTGSRYYQEGDYWGQGTQVTVSS

>  <Parameter measured>
polyreactivity (PSR sort gate)

>  <Meas value>
low polyreactivity

$$$$
>  <Sequence content>
QVQLVESGGGLVQAGGSLRLSCAASGFTFGHYAMGWYRQAPGKQRELVAAISYSGVRTYYADSVKGRFTISRDNAKNTVYLQMNSLKPEDTAVYYCNKYPAHYQTRRYDYWGQGTQVTVSS

>  <Parameter measured>
polyreactivity (PSR sort gate)

>  <Meas value>
high polyreactivity

$$$$
>  <Sequence content>
QVQLVESGGGLVQPGGSLRLSCAASGSILKSYAMGWYRQAPGKERELVAAITYRDGSTYYAHSVKGRFTISRDNSKNTVYLQMNSLKPVDTAVYYCAAEPSWWNVFYPGYNYWGQGTQVTVSS

>  <Parameter measured>
polyreactivity (PSR sort gate)

>  <Meas value>
high polyreactivity

$$$$
>  <Sequence content>
QVQLVDSGGGLVQAGGSLRLSFAASGNIIYQNAMGWDRQAPGKERELVAAISSGGSTNYADSVKGRFTISRDNAKITVYLQMNSLKPEDTAVYYCAAEHWTESVWDDSWGQGTQVTVSS

>  <Parameter measured>
polyreactivity (PSR sort gate)

>  <Meas value>
low polyreactivity

$$$$
>  <Sequence content>
QVQLVESGGGLVQAGGSLRLSCAASGSIFNYNAMGWYRQAPGKERELVAAMSGSGGRTYYADSVKGRFTISRDNAKYTVYLQMNSLKPEDTAVYYCATYVRITPYEYWGQGTQVTVSS

>  <Parameter measured>
polyreactivity (PSR sort gate)

>  <Meas value>
high polyreactivity

$$$$
>  <Sequence content>
QVQLEESGGGLVQAGGSLRLSCAASGSTFTEYVMGWYRHATGKERELVAAIRSNGGSTYYADSVKGRFTISRDNAKNTVYLQMHSLNPEDTAVYYCNRVYSRRTYNSPLYDDWGQGTQVTVSS

>  <Parameter measured>
polyreactivity (PSR sort gate)

>  <Meas value>
high polyreactivity

$$$$
>  <Sequence content>
QVQLVESGGGLVHAGGSLRLSCAASGFIFGSYTMVWYRTAPGKERELVATITLSDGSTYYADSVNGRFTISRDNANNTVFLQMNSLKPEDTAVYYCNKDKVVVRYDYWGQGTQVTVSS

>  <Parameter measured>
polyreactivity (PSR sort gate)

>  <Meas value>
low polyreactivity

$$$$
>  <Sequence content>
QVQHVESGGGLVQAGGSLRLSCAASGITFKPNAMGWSRHAPGKERELVAAIDSGGSTNYAYSVKGRFTISLDNAKNTVYLQMNSLKPEDTAVYYCAAPYQDRDLQVSYSTYEGGYWGQGTQVTVSS

>  <Parameter measured>
polyreactivity (PSR sort gate)

>  <Meas value>
low polyreactivity

$$$$
>  <Sequence content>
QVQLVESGGGLVQAGGSLRLSCAASGSIFNYYAMGWYRPAPGKERELVAGITTSGGSTYYADSVKGRFTISRDNAKNTVYLQMNSLKPEDTAVYYCAAYDYISSTYFLDDYWGQGTQVTVSS

>  <Parameter measured>
polyreactivity (PSR sort gate)

>  <Meas value>
low polyreactivity

$$$$
